growth for assorted compounds
test system: T-47D breast; assay: NCI-60 one-dose screen, 48 h (100 = growth as untreated, 0 = no growth, -100 = all killed); settings: 10 µM unless noted
Compounds without any hit were thinned out: in the full panel of roughly 83,000, 20% have a hit.
Respond with the bare value in %.

Worked examples follow.
INSERT INTO results (compound, tgt, valuemeasured) VALUES
  ('S=C=Nc1ccc(N2CCOCC2)cc1', 'T-47D breast', 74.3),
  ('O=C1C=CC(=O)N1c1cccc2c1CCCC2', 'T-47D breast', 86.5),
  ('O=C(/C=C/c1ccccc1)c1ccccc1O', 'T-47D breast', 62.6),
  ('CCN1CCCC(Nc2cc(C)nc(/N=C(/N)Nc3ccc(Cl)c(Cl)c3)n2)C1 (configuration not stated)', 'T-47D breast', -49.2),
  ('NC(CS/C(Cl)=C/Cl)C(=O)O (configuration not stated)', 'T-47D breast', -7.75),
  ('Cc1cc(=O)oc2cc(O)cc(O)c12', 'T-47D breast', 90.5);

Reported growth, compound COc1ccc(NC(=O)/C(=C/N2C(=O)/C(=C/c3ccc(OC)c(OC)c3)NC2=S)C(C)=O)cc1 : ____
19.1

Could you tell me which growth is on file for C1=C(c2ccccc2)c2ccccc2C1 ?
92.7

Quick check: growth of CC1(C)OC2C(COC(c3ccccc3)(c3ccccc3)c3ccccc3)OC(c3c[nH]c4c(N)ncnc34)C2O1 (configuration not stated) ?
43.2

Need growth, item c1ccc(C2NCCNC2c2ccccc2)cc1 (configuration not stated)
104

Please report the recorded growth for C[C@@]1(CO)[C@H](O)CC[C@@]2(C)[C@H]1CC[C@H]1C[C@@H]3C[C@@]12CC[C@@]3(O)COC(=O)CN .
61.8

What measured growth goes with O=C(C[P+](c1ccccc1)(c1ccccc1)c1ccccc1)c1ccccc1 ?
89.9

====

test system: NCI-H322M lung; assay: NCI-60 one-dose screen, 48 h; details: 10 µM unless noted
This is part of a sample that, as a whole, favours compounds with a hit. Of some 83,000 tested, about 20% had one in any assay. The source made the active and inactive calls. How the source made its calls: active means growth percent below 10; inactive means the rest.
Can you answer with just one of these options? active, inactive

Previously resolved entries follow.
INSERT INTO measurements (molecule, classassignment) VALUES
  ('S=C1SCN(Cc2cccs2)CN1Cc1cccs1', 'inactive'),
  ('CC1C(c2ccccc2)OCCN1C(=S)Nc1ccc(S(=O)(=O)N2CCCCC2)cc1 (centres undefined)', 'inactive'),
  ('COc1cccc2c1C(=O)c1c(O)c3c(c(O)c1C2=O)C[C@@](O)(C(=O)CO)C[C@@H]3OC1CC(OC(C)=O)C(OC(C)=O)C(C)O1 (some centres undefined)', 'active'),
  ('Cn1ccc(=Nc2ccc(NC(=O)c3ccc(N=c4ccn(C)c5ccc([N+](=O)[O-])cc45)cc3)cc2)cc1', 'inactive'),
  ('Oc1c(Cl)cc(Cl)cc1C(c1cc(Cl)cc(Cl)c1O)C(Cl)(Cl)Cl', 'active');

Dear colleague, could you share the recorded outcome for CC1(C)OC2C(COC(c3ccccc3)(c3ccccc3)c3ccccc3)OC(c3c[nH]c4c(N)ncnc34)C2O1 (centres undefined) when you have a moment?
inactive

Called result for CCC[CH2][Sn]1([CH2]CCC)[O]C2C(CO)OC(n3ccc(N)nc3=O)C2[O]1 (centres undefined)
inactive

Can you look up the reported call for O=[N+]([O-])C=C(c1ccccc1)c1ccccc1 for me?
inactive

Could you please tell me the result logged for Cc1nc(Sc2nc3ccc([N+](=O)[O-])cc3s2)sc1C in this assay?
inactive

====

system: OVCAR-4 ovarian; test: NCI-60 one-dose screen, 48 h (100 = growth as untreated, 0 = no growth, -100 = all killed); settings: 10 µM unless noted
Compounds without any hit were thinned out: in the full panel of roughly 83,000, 20% have a hit.
measuredEndpoint: growth (%)
# value in %; strip the unit string

Some compounds with known growth results, for comparison:
INSERT INTO assay_data (compound, valuemeasured) VALUES
  ('CC1=CC(=O)C=CC1(C)C(Cl)(Cl)Cl (stereo unspecified)', 114),
  ('S=C(S)OCN1CCOCC1', 56.5),
  ('CCOC(=O)NC(/C=C/c1ccccc1)NC(=O)OCC', 109),
  ('Clc1ccc(-n2ncc3c(NCCCN4CCOCC4)ncnc32)cc1', 102),
  ('CC(O)C(O)C(O)C(O)C(O)C(=O)NNc1ccccc1 (stereo unspecified)', 96.5);

Item COc1cc2c(c(OC)c1OC)-c1ccc(NCc3ccccc3)c(=O)cc1[C@@H](NC(C)=O)CC2 with OVCAR-4 ovarian - growth?
29.6

====

test system: HS 578T breast; experiment: NCI-60 one-dose screen, 48 h (100 = growth as untreated, 0 = no growth, -100 = all killed); details: 10 µM unless noted
Compounds without any hit were thinned out: in the full panel of roughly 83,000, 20% have a hit. Calls of active or inactive are those of the source. How the source made its calls: active means growth percent below 10; inactive means the rest.
# growth per entry

INSERT INTO results (compound, measuredendpoint, valuemeasured) VALUES
  ('CCOC(=O)NC(/C=C/c1ccccc1)NC(=O)OCC', 'growth', '103% (inactive)'),
  ('NC(=S)N/N=C\c1nccc2c(C(F)(F)F)cccc12', 'growth', '54.3% (inactive)'),
  ('S=C1SCN(Cc2cccs2)CN1Cc1cccs1', 'growth', '91.1% (inactive)'),
  ('Cc1cc(C)c([I+]c2c(C)cc(C)cc2C)c(C)c1', 'growth', '20.5% (inactive)'),
  ('O=C(/C=C/c1ccccc1)c1ccccc1O', 'growth', '94.7% (inactive)');

Please look up its growth: Cc1cc(=O)oc2cc(O)cc(O)c12
106% (inactive)

Quick one: growth for CC1(C)OCC(COC(c2ccccc2)(c2ccccc2)c2ccccc2)O1 (centres undefined) ?
103% (inactive)

Which growth is reported for this compound? O=C(CBr)c1ccc(OC(=O)c2ccccc2)cc1
108% (inactive)

Could you tell me which growth is on file for CCCC[n+]1c(/C=C\c2c(OC)cc(OC)cc2OC)ccc2ccccc21 ?
16.4% (inactive)

Can you look up the measured growth of C/C=C/c1cc2c(c(=O)o1)C(=O)[C@@H](O)[C@H](C)O2 for me?
93.4% (inactive)

Entry under review: S=C=Nc1ccc(N2CCOCC2)cc1 . Reported growth?
99.3% (inactive)

Could you tell me which growth is on file for CC1(C)CCCC2=C1C(=O)N(SC(Cl)(Cl)Cl)C2=O ?
102% (inactive)

# get_value(readout='growth', item= O=C(Nc1ccc(Cl)c(Cl)c1)Nc1ccccc1O )
106% (inactive)

May I ask what growth has been recorded for CCCCCCCCCCCC[n+]1ccc2ccccc2c1 ?
15.1% (inactive)

====

tested on: U251 CNS; test: NCI-60 one-dose screen, 48 h; conditions: 10 µM unless noted
The panel holds about 83,000 compounds, 20% with a hit somewhere; the sample as a whole holds those more often. Activity calls are given as the source filed them. Rule for the calls: active = growth percent below 10; inactive = the rest.
Write down the outcome that applies. Available outcomes: 1 for active, 0 for inactive

// known answers, use as guide
INSERT INTO results (compound, tgt, classassignment) VALUES
  ('C(=N\Nc1ccc2ccccc2n1)/c1ccccn1', 'U251 CNS', 0),
  ('CCN1/C(=C/C(C)=C/c2sc3ccc4ccccc4c3[n+]2CC)Sc2ccc3ccccc3c21', 'U251 CNS', 1),
  ('c1ccc2sc(SSN3CC4CCC(CC4)C3)nc2c1', 'U251 CNS', 0),
  ('Cc1ccc(NC2=CC(=O)C(=O)c3ccccc32)cc1', 'U251 CNS', 0),
  ('CN1CCC(CN2c3ccccc3Sc3ccccc32)C1 (stereo not given)', 'U251 CNS', 0),
  ('Fc1ccc(NCCS)cc1', 'U251 CNS', 0);

Which outcome was assigned to OCCOSCCO in this test?
0

Please state the recorded outcome for this compound: OC(c1cc(-c2ccc(Cl)cc2)nc2c(Cl)cccc12)C1CCCCN1 (stereo not given)
1

Please let me know the test result on file for COC(=O)C(=[N+]=[N-])C(=O)c1ccc([N+](=O)[O-])o1 .
0

====

system: RXF 393 renal; test: NCI-60 one-dose screen, 48 h (100 = growth as untreated, 0 = no growth, -100 = all killed); conditions: 10 µM unless noted
Compounds without any hit were thinned out: in the full panel of roughly 83,000, 20% have a hit. Active and inactive are the calls of the source. Rule for the calls: active = growth percent below 10; inactive = the rest.
measuredEndpoint: growth

INSERT INTO results (compound, valuemeasured) VALUES
  ('CC(=O)c1ccc2c(c1)CCc1ccccc1-2', '97.4% (inactive)'),
  ('CN=C(N)N/N=C(\c1ccccc1)c1ccc(Br)cc1', '-0.626% (active)'),
  ('Cc1nc(Sc2nc3ccc([N+](=O)[O-])cc3s2)sc1C', '-2.1% (active)'),
  ('O=C(c1ccccc1)c1ccc(O)c2ncccc12', '41.8% (inactive)'),
  ('O=C(CBr)c1ccc(OC(=O)c2ccccc2)cc1', '119% (inactive)'),
  ('N#CC(=C1SCS1)[N+](=O)[O-]', '12.2% (inactive)');

Bench note: what growth did CCN1CCCC(Nc2cc(C)nc(/N=C(/N)Nc3ccc(Cl)c(Cl)c3)n2)C1 (stereo unspecified) show?
-81.3% (active)

So what does the record say about growth for CCCCCCCCCCCC(=O)OC(C)C(=O)NCCCC (stereo unspecified) ?
107% (inactive)

// returns reported growth for input [Cl-].[Rh+3].c1ccc(-c2ccnc3c2ccc2c(-c4ccccc4)ccnc23)cc1.c1ccc(-c2ccnc3c2ccc2c(-c4ccccc4)ccnc23)cc1.c1ccc(-c2ccnc3c2ccc2c(-c4ccccc4)ccnc23)cc1
22.1% (inactive)

I would be grateful if you could share the reported growth for O=C(c1ccccc1)N(CCCl)C(=O)N(CCCl)C(=O)c1ccccc1 .
104% (inactive)

What growth value was documented for this compound, CCCCCC[C@@H](O)C/C=C\CCCCCCCC(=O)OCCOC ?
110% (inactive)
